Kindly supply the reported growth inhibition values for the records listed here.
Assay: NCI Yeast Anticancer Drug Screen. Data for the mlh1 rad18 strain (AID 175)
Conditions: S. cerevisiae mlh1 rad18 strain growth inhibition; at 5.0 µM (retest, dose inferred, filed as 0.5); hits give high values
This is part of a sample that, as a whole, favours compounds with a hit. Of some 79,000 tested, about 15% had one in any assay.
Hi! Could you send only the number? It should be in %, unit omitted.

**Query** Give the measured growth inhibition of COc1ccc2nc3cc([N+](=O)[O-])ccc3c(NNc3ccc([N+](=O)[O-])cc3)c2c1 .
**Result** 5

**Query** Field entry: NC(=O)c1nnn(Cc2cc(Cl)c(C(=O)c3ccc(Cl)cc3)c(Cl)c2)c1N
**Result** 13

**Query** Please give the result for C[n+]1c(-c2ccc(/C=N/NC(=O)C(=O)N/N=C/c3ccc(-c4cn5ccccc5[n+]4C)cc3)cc2)cn2ccccc21 too.
**Result** 70

**Query** Check COC(=O)c1nc2ccc([N+](=O)[O-])cc2n1O too.
**Result** -116

**Query** // query: Cc1nc2sc3c(c2c2nnnn12)CCCC3
**Result** 7

**Query** Field entry: O=C(/C=C\c1cc(Br)ccc1O)/C=C/c1cc(Br)ccc1O
**Result** 48

**Query** Queued: O=[N+]([O-])/C(C(Cl)=C(Cl)Cl)=C(/Sc1ccccc1)N1CCOCC1
**Result** 15

**Query** Moving on to CC(C)C(=O)NNc1ccccc1
**Result** 39

**Query** Again, but for CCOC(=O)CNC(=O)Sc1ccc(C(C)(C)C)cc1C
**Result** 29

**Query** How about C[C@]12CCC3[C@@H](CC[C@@H]4c5nonc5CC[C@]34C)C1CCC(=O)N2 (stereo partly drawn) ?
**Result** 16

**Query** What about c1ccc2c(c1)Nc1cc3ccccc3cc1N2 ?
**Result** 37

**Query** Same again, this time with Oc1c(Cl)c2ccccc2c2ccccc12
**Result** 8

**Query** Similarly, NC(=O)/C=C/C(=O)c1c(Cl)cccc1Cl ?
**Result** 100

**Query** Continue with CCN(CC)C(=S)N/N=C/c1cc([N+](=O)[O-])ccc1O
**Result** 12

**Query** Try the molecule C[N+](C)=c1ccc2nc3c(cc(NCCCNc4cc5oc6cc(=[N+](C)C)ccc-6nc5c5ccccc45)c4ccccc43)oc-2c1
**Result** -15

**Query** And the next one, CC(N)C(O)c1ccc2ccc3ccccc3c2c1 (stereo not drawn) ?
**Result** 11

**Query** // repeat for OC1(CCc2ccccc2)COC(C(F)(F)F)(C(F)(F)F)C1 (stereo not drawn) and report
**Result** 26

**Query** Continue with O=C(Cc1ccc2c(c1)OCO2)c1ccc(O)cc1O
**Result** 5

**Query** Then what about the molecule O=C(O)c1ccc(/C=C2\COc3ccccc3C2=O)cc1 ?
**Result** 4

**Query** Also check CCN(C(=O)O)c1ccc(/C=C/c2ccnc3ccccc23)cc1
**Result** -7

**Query** And the next one, CN(C)CC(CN(C)C)C(=O)c1ccc(Oc2ccc(Cl)c(Cl)c2)cc1 ?
**Result** 21

**Query** Then what about the molecule O=[N+]([O-])c1ccc(N/N=C/COCCO)c([N+](=O)[O-])c1 ?
**Result** 1

**Query** Try this molecule too: CC1CC(C)C(C)C(CO)C1 (stereo not drawn)
**Result** 6
